# Tested on: transient receptor potential cation channel C4 beta (TRPC4), mouse
# procedure_summary: activators of mouse TRPC4 channel, confirmation, cell-based, second round, Fluo4, HEK293 TRPC4beta/mu-opioid, 1 µM (AID 2461)
# measurement_setup: Fluo4 calcium fluorescence, at 1 µM
Active and inactive are the calls of the source.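 Rule for the calls: active = primary screen active and over 50% activation in each of two duplicate runs; inactive = the rest.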
I would appreciate it if you answered using one of these outcomes: class 1 for active, class 0 for inactive

The following compounds have reported results that may help.
Fc1cccc(C2NCCc3[nH]cnc32)c1 (stereo not drawn); class 0
c1ccc2sc(N3CCNCC3)nc2c1; class 1

As a next step, examine the compound that follows.
Recorded call for CCn1ccnc1CN1CCCC(C(=O)c2cccc(C(F)(F)F)c2)C1 (stereo not drawn) ? class 0

The reported measurements were obtained from PubChem BioAssay.
